For each of the molecules below, state its IC50.
EXPERIMENTAL TARGET: Klebsiella pneumoniae LpxC (Klebsiella pneumoniae subsp. pneumoniae (strain ATCC 700721 / MGH 78578), UniProt A6T4N9)
ASSAY SUMMARY: Inhibition Assay against Klebsiella pneumoniae LpxC (LC-MS/MS)
Format: biochemical
CONDITION SUMMARY: 0.2 nM Kpn LpxC, 22° C., 60 minutes

MOLECULE: O=c1[nH]cnc(CNc2ccc(C#Cc3ccc(CN4CCOCC4)cc3)cc2)c1O [Compound 98]
IC50: 10 to 100 nM

The record that follows has no IC50 shown yet.
[ask] Query: IC50; subject: O=C(c1ccc(C#CC#Cc2ccc(NCc3nc[nH]c(=O)c3O)cc2)cc1)N1CCOCC1 [Compound 97]
[reply] 10 to 100 nM
